# method.summary: logP(HCOOH) reported with HPLC/MS
# test.settings: HCOOH (formic acid), logP(HCOOH), HPLC/MS
Tag: criterion met if measured chromatographic logP is not below 3, criterion not met if it is.

Example results:
CSc1cccc(C(=NO)c2nnnn2C)c1 ... criterion not met
CCCCCCN(C=O)c1cccc(C)n1 ... criterion met
Cn1nnnc1C(=NOCc1csc(C#CCOCc2ccccc2)n1)c1ccccc1 ... criterion met
O=C1c2ccccc2C(=O)N1Cc1cccc(CCl)n1 ... criterion not met

Consider the additional compound presented here.
Q: Form field: chromatographic logP at least 3? Entry: Cc1cccc(NC(=O)C(C)(C)C)[n+]1[O-]
A: criterion not met
